Data provenance is PubChem BioAssay.

System: Chordin-like protein 2 (CHRDL2)
ASSAY_EXPLANATION: CHRDL2 small-molecule binders, primary screen, biochemical, small-molecule microarray, 635 nm fluorescence (AID 1126);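 also: printed compound slides probed with Chrdl2 protein at 4 µg/mL for 1 h at 4 C; score merges 667 nm emission intensity with signal to noise over three replicate slides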
TEST_CONDITIONS: small-molecule microarray binding, fluorescence 635 nm; higher = more signal
# cutoff 0.4 applies to composite z-score; >= gives label 1, < gives label 0

[[record]]
compound = "CC(C)N1C(=O)c2ccccc2[C@](C)(C(=O)NCCN2CCOCC2)[C@@H]1c1ccc(CO)cc1"
answer_label = "label 0"

[[record]]
compound = "C=CCOC(=O)[C@H]1[C@@H]2C(=O)O[C@@H](c3ccccc3)[C@@H](c3ccccc3)N2[C@@H](c2ccc(OCCOC(=O)[C@H]3C[C@H]4C(=O)N[C@@H](CCCC[N+](C)(C)C)C(=O)N4[C@H]3c3ccc(O)cc3)cc2)[C@]12C(=O)Nc1ccc(I)cc12"
answer_label = "label 1"

[[record]]
compound = "O=C1C[C@]2(c3ccc([N+](=O)[O-])cc3)C(=O)N(CC(F)(F)F)c3cc(CO)ccc3[C@H]2N1C1CCCCC1"
answer_label = "label 0"

[[record]]
compound = "COc1ccc([Si](C)(C)[C@@H]2[C@@H](CCO)O[C@]3(C(=O)N(Cc4ccc(N(C=O)c5ccccc5)cc4)c4ccccc43)[C@H]2C)cc1"
answer_label = "label 0"

[[record]]
compound = "C=CCOC(=O)[C@H]1[C@@H]2C(=O)O[C@@H](c3ccccc3)[C@@H](c3ccccc3)N2[C@@H](c2ccc(OCCOC(=O)[C@H]3C[C@H]4C(=O)N[C@@H](CCCCN(C)C)C(=O)N4[C@H]3c3ccc(O)cc3)cc2)[C@]12C(=O)Nc1ccc(I)cc12"
answer_label = "label 1"

[[record]]
compound = "O=C1[C@@]23C=C(Br)[C@H](C[C@@H]2CCOC3)[C@@]12CO2"
answer_label = "label 1"

[[record]]
compound = "CC(C)OC(=O)C=C1C[C@@H](c2ccccn2)O[C@@H](c2ccccn2)O1"
answer_label = "label 1"

[[record]]
compound = "O=C1N[C@@H](Cc2ccccc2)C(=O)N2[C@@H]1C[C@@H](C(=O)O)[C@H]2c1cccc(OCCO)c1"
answer_label = "label 1"


Determine whether measured composite z-score meets or exceeds 0.4 for CC(=O)n1cc(C(O)C2C=CC3C(=O)N(c4ccccc4)C(=O)C3N2Nc2ccc([N+](=O)[O-])cc2)c2ccccc21 (stereo not given)
label 0

Determine whether measured composite z-score meets or exceeds 0.4 for `C=CCN1C(=O)[C@@]2(Cc3ccccc31)N=C(c1ccc(OCCCO)cc1)O[C@H]2c1ccccc1`
label 1

Determine whether measured composite z-score meets or exceeds 0.4 for `[N-]=[N+]=Nc1ccccc1[C@H]1OC(c2ccc(OCCCO)cc2)=N[C@@]1(CCS(=O)(=O)c1ccccc1)C(N)=O`
label 0

Determine whether measured composite z-score meets or exceeds 0.4 for C[C@H]1C2[C@H](Cc3ccccc3)NC(=O)[C@]23C(=O)N[C@H](Cc2ccccc2)C(=O)N2CCC[C@H]2C(=O)NC/C=C\C/C=C/C3[C@@H]2O[C@]12C (stereo not given in full)
label 0

Determine whether measured composite z-score meets or exceeds 0.4 for `CC(C)C(=C=CC[C@H](O)c1ccc(OCCO)cc1)CCO`
label 1

Determine whether measured composite z-score meets or exceeds 0.4 for Cc1ccccc1C(O)C1C=CC2C(=O)N(c3ccccc3)C(=O)C2N1Nc1ccc(C(C)C)cc1 (stereo not given)
label 0

Determine whether measured composite z-score meets or exceeds 0.4 for `COc1cc2c(cc1OC)CN(C(=O)[C@@H]1[C@H]3C(=O)O[C@H](c4ccccc4)[C@H](c4ccccc4)N3[C@H](c3ccccc3OCCO)[C@@]13C(=O)Nc1ccc(C#CCCO)cc13)CC2`
label 0
